Tested on: M. tuberculosis H37Rv growth inhibition with meropenem
Assay name: dose response, H37Rv, with and without meropenem (AID 434987);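 also: growth over 7 days at 37 °C before Alamar Blue read on day 9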
Condition description: measured here: IC90 with meropenem
Reported endpoint: IC90

These solved cases illustrate the format of a correct answer.
Compound: Cn1c(=O)[nH]c(=O)c2c1nc(Br)n2CCC(=O)c1ccccc1
Value measured: > 50 µM
//
Compound: CCCOc1ccccc1NC(=O)/C=C/C(N)=O
Value measured: 27.7 µM
//
Compound: CCOC(=O)N1CCC(N2CCN(S(=O)(=O)c3ccc(Cl)cc3)CC2)CC1
Value measured: > 100 µM
//
Compound: Cc1ccccc1C(=O)NC(=S)Nc1sc2c(c1C#N)CCC(C)C2 (configuration not stated)
Value measured: > 100 µM
//
Compound: O=C(c1cc2c(s1)CCCC2)n1cccn1
Value measured: > 100 µM
//
Compound: CCOC(=O)CSc1nnc(NC(=O)c2cccc(S(=O)(=O)N3CCCCC3)c2)s1
Value measured: > 100 µM
//
Compound: NC(=O)Nc1ccc(C(=O)OCC(=O)Nc2ccc(Cl)cn2)cc1
Value measured: > 100 µM
//
Compound: O=C(CN1C(=O)c2cccc([N+](=O)[O-])c2C1=O)N1CCN(c2ccc(F)cc2)CC1
Value measured: 74.5 µM
//
Compound: Cn1c(=O)c2[nH]c(CNCc3ccccc3Cl)nc2n(C)c1=O
Value measured: > 100 µM
//
Compound: Cc1cccc(/C=N\NC(=O)c2csnn2)c1
Value measured: > 100 µM

Incoming: If you can, please state the reported IC90 value of `Cc1nc2sc3c(c2c2nnc(SCC(=O)NCc4ccco4)n12)CCCC3` .
Outgoing: > 100 µM

Incoming: Name the recorded IC90 for `O=C(NC1CCCC1)c1ccccc1OCc1ccccc1` .
Outgoing: > 100 µM

Incoming: Fill blank: measured IC90 of the compound `c1ccc(-c2noc(-c3cccc4ccccc34)n2)cc1` is ____.
Outgoing: > 100 µM

Incoming: Request the reported IC90 associated with `COc1ccc(C(=O)Nc2ccc(C(=O)OCC(=O)c3ccccc3)cc2)cc1`
Outgoing: > 100 µM

Incoming: Could you share which IC90 value was measured for CC(C)(C)C1CCC(OCC(O)CN2CCN(c3ccccn3)CC2)CC1 (configuration not stated) ?
Outgoing: > 100 µM

---

Test system: M. tuberculosis H37Rv growth inhibition with meropenem
Assay name: dose response, H37Rv, with and without meropenem (AID 434987);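 also: growth over 7 days at 37 °C before Alamar Blue read on day 9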
Condition description: M. tuberculosis H37Rv growth inhibition; measured here: IC50 without meropenem
Reported endpoint: IC50

Incoming: Need IC50 of `CCOC(=O)N1CCN(CC(=O)Nc2nnc(C(F)(F)F)s2)CC1` , thanks.
Outgoing: > 100 µM

Incoming: Name the reported IC50 value associated with the molecule CCC(C)C(NC(N)=O)C(=O)Nc1ccc(OCc2ccccc2)cc1 (stereo not drawn)
Outgoing: > 100 µM

Incoming: Need IC50, item `CCOC(=O)CNC(=O)/C(=C\c1ccc(F)cc1)NC(=O)c1ccccc1`
Outgoing: 55.5 µM

Incoming: Query: IC50; subject: `CCn1c(SCc2nc(-c3cccs3)no2)nnc1-c1c[nH]c2ccccc12`
Outgoing: > 100 µM

Incoming: Using the record for COC(=O)CN1C(CN2CCOCC2)=Nc2ccc(Br)cc2C1c1ccccc1 (stereo not drawn) , report its IC50.
Outgoing: > 100 µM

Incoming: Please look up its IC50: `O=C(NCCC1=CCCCC1)NC1CCCCC1`
Outgoing: > 100 µM

Incoming: Which IC50 reading was recorded for the molecule `COc1cccc(NC(=O)C(=O)c2cn(CC(=O)N3CCOCC3)c3ccccc23)c1` ?
Outgoing: > 100 µM

Incoming: Which value of IC50 has been reported for `COc1ccc(CNC(=O)C2CCN(S(=O)(=O)c3c(C)noc3/C=C/N(C)C)CC2)cc1` in the records?
Outgoing: > 100 µM

Incoming: Can you look up the measured IC50 of `N/C(=N\c1nc2ccccc2o1)NC(=O)c1ccccc1NC(=O)c1ccccc1` for me?
Outgoing: > 100 µM

Incoming: Name the recorded IC50 for CC(C)(C)C1CCC(OCC(O)CN2CCN(c3ccccn3)CC2)CC1 (stereo not drawn) .
Outgoing: > 100 µM

Incoming: Which IC50 is listed for `O=C(c1csc2c1CCCC2)n1cccn1` ?
Outgoing: 97.3 µM
